# protocol: Drug concentration in feces of ICR mouse at 30 mg/kg, po measured after 8 hrs by UPLC analysis
# Assay type: ADME, organism-based
# conditionParameters: faeces, read-out: Ct
testReadout: concentration at 8 h (ng/g)
Field format: number, assumed ng/g, no unit text.

Exercise: For "Cl.NCc1ccc(-c2nc(-c3ccnc(Oc4ccc(C(F)(F)F)cc4)c3)no2)cc1" , what is its reported concentration at 8 h?
Solution: 11000

* * *

# protocol: Cmax in feces of Golden Syrian hamster at 5 mg/kg, po bid measured for 5 days
# Type: ADME, organism-based, Mesocricetus auratus
# conditionParameters: faeces, time 5 day
testReadout: Cmax

Exercise: For "Cl.NCc1ccc(-c2nc(-c3ccnc(Oc4ccc(C(F)(F)F)cc4)c3)no2)cc1" , what is its reported Cmax?
Solution: ~4000 ng/g

* * *

# protocol: Terminal half life in ICR mouse at 30 mg/kg, po measured for 1 to 24 hrs by UPLC analysis
# Assay type: ADME, organism-based
# conditionParameters: in vivo, time 1-24 hrs, read-out: beta t1/2 (converted)
testReadout: half-life (min)
Field format: number, assumed min, no unit text.

Exercise: For "Cl.NCc1ccc(-c2nc(-c3ccnc(Oc4ccc(C(F)(F)F)cc4)c3)no2)cc1" , what is its reported half-life?
Solution: 378

* * *

# protocol: Drug concentration in brain of Golden Syrian hamster at 5 mg/kg, po bid measured after 8 hrs
# Assay type: ADME, organism-based, Mesocricetus auratus
# conditionParameters: read-out: Ct
testReadout: concentration at 8 h (ng/g)
Field format: number, assumed ng/g, no unit text.

Exercise: For "Cl.NCc1ccc(-c2nc(-c3ccnc(Oc4ccc(C(F)(F)F)cc4)c3)no2)cc1" , what is its reported concentration at 8 h?
Solution: 15000

* * *

# protocol: AUC (0 to 24 hrs) in ICR mouse at 30 mg/kg, po measured for 1 to 24 hrs by UPLC analysis
# Assay type: ADME, organism-based
# conditionParameters: in vivo, time 1-24 hrs
testReadout: AUC(0-t) (ng·h/mL)
Field format: number, assumed ng·h/mL, no unit text.

Exercise: For "Cl.NCc1ccc(-c2nc(-c3ccnc(Oc4ccc(C(F)(F)F)cc4)c3)no2)cc1" , what is its reported AUC(0-t)?
Solution: 17000

* * *

Form field: inhibition at 45 µM (one value per entry).
# System: Clostridioides difficile
# protocol: Antibacterial activity against Clostridium difficile ATTC43255 assessed as spore germination inhibition at 45 uM incubated for 60 mins by spectrometry relative to control
# Assay type: functional
# conditionParameters: ATTC43255, 1 h

Past entries and their recorded results:
| compound | reported |
| --- | --- |
| FC(F)(F)c1ccc(Oc2ccc(-c3noc(-c4n[nH]cc4I)n3)cc2)cc1 | < 10% |
| NCc1ccc(-c2nc(-c3ccc(Oc4ccc(C(F)(F)F)cc4)cn3)no2)cc1 | 24% |
| NCc1ccc(-c2nc(-c3ccc(Oc4ccc(C(F)(F)F)cc4)cc3)no2)cc1 | 41% |

Consider now this further compound.
Exercise: Entry "Oc1ccc(-c2nc(-c3ccc(OC4CCC4)cc3)no2)cc1" , system Clostridioides difficile: what inhibition at 45 µM was measured?
Solution: < 10%

* * *

# System: Clostridioides difficile
# protocol: Antibacterial activity against Clostridium difficile ATTC43255 assessed as spore germination inhibition at 45 uM incubated for 60 mins by spectrometry relative to control
# Type: functional
# conditionParameters: ATTC43255, 1 h
testReadout: inhibition at 45 µM

Past entries and their recorded results:
| compoundSmiles | inhibition at 45 µM |
| --- | --- |
| FC(F)(F)c1ccc(Oc2ccc(-c3noc(-c4c[nH]cn4)n3)cc2)cc1 | < 10% |
| NCc1ccc(-c2nc(-c3ccc(OC4CCC4)cc3)no2)cc1 | 24% |
| Nc1cc(-c2nc(-c3ccc(Oc4ccc(C(F)(F)F)cc4)cc3)no2)cnc1O | < 10% |
| NCc1ccc(-c2nc(-c3ccnc(-c4ccc(C(F)(F)F)cc4)c3)no2)cc1 | 71% |

Exercise: For "Clc1c[nH]nc1-c1nc(-c2ccc(OC3CCCC3)cc2)no1" , what is its reported inhibition at 45 µM?
Solution: < 10%

Exercise: For "NCc1ccc(-c2nc(-c3ccc(O[C@@H]4CCNC4)cc3)no2)cc1" , what is its reported inhibition at 45 µM?
Solution: < 10%
